system: LNCaP tumor-transplanted mouse; experiment: Internal radioactivity distribution using LNCaP tumor-transplanted mouse; assay type: in vivo; settings: 4 h after administration
QUANTITY: Heart (% ID/g)
Respond with the bare value in % ID/g.

**Query** What Heart value was documented for this compound, O=C([O-])CN1CCN(C(CCC(=O)NCCCC[C@H](NC(=O)N[C@@H](CCC(=O)O)C(=O)O)C(=O)O)C(=O)[O-])CCN(CC(=O)[O-])CCN(C(CCC(=O)N[C@@H](CCCCNC(=O)CCCc2ccc(I)cc2)C(=O)O)C(=O)[O-])CC1.[111In+3] (stereo partly drawn) [[^111In]In-PSMA-DA1] ?
**Result** 7.10

**Query** What Heart value was documented for this compound, O=C([O-])CN(Cc1cccc(C(=O)[O-])n1)C[C@H](Cc1ccc(NC(=O)CCCCCNC(=O)CCC(=O)NCCCC[C@H](NC(=O)N[C@@H](CCC(=O)O)C(=O)O)C(=O)O)cc1)N(CC(=O)[O-])Cc1cccc(C(=O)[O-])n1.[111In+3] [[^111In]In-Octapa-1, reference compound] ?
**Result** 0.18

**Query** What Heart value was documented for this compound, O=C([O-])CN(Cc1cccc(C(=O)[O-])n1)C[C@H](Cc1ccc(NC(=O)[C@H](CCCCNC(=O)CCC(=O)NCCCC[C@H](NC(=O)N[C@@H](CCC(=O)O)C(=O)O)C(=O)O)NC(=O)COCCOCCOCC(=O)N[C@@H](CCCCNC(=O)CCCc2ccc(I)cc2)C(=O)O)cc1)N(CC(=O)[O-])Cc1cccc(C(=O)[O-])n1.[111In+3] [[^111In]In-Octapa-3] ?
**Result** 5.98

---

I'd appreciate it if you could supply Liver values for the items below.
Tested on: LNCaP tumor-transplanted mouse
Test: Internal radioactivity distribution using LNCaP tumor-transplanted mouse
Type: in vivo
Settings: 1 h after administration
Experimental: The animal test was performed in compliance with the guidelines of Kyoto University Animal Experiment Committee. […] LNCaP or PC-3 tumor-implanted mice were administered saline solutions (185 kBq, 100 μL) of [^111In]In-PSMA-DA1 or [^111In]In-PSMA-DB from the tail vein (n=3 each). […] Thereafter, blood and each organ were recovered, and the mass and radioactivity of the organs were measured. […]
Respond with the bare value in % ID/g.

**Query** What Liver value was documented for this compound, O=C([O-])CN(Cc1cccc(C(=O)[O-])n1)C[C@H](Cc1ccc(NC(=O)CCCCCNC(=O)CCC(=O)NCCCC[C@H](NC(=O)N[C@@H](CCC(=O)O)C(=O)O)C(=O)O)cc1)N(CC(=O)[O-])Cc1cccc(C(=O)[O-])n1.[111In+3] [[^111In]In-Octapa-1, reference compound] ?
**Result** 0.36

**Query** What Liver value was documented for this compound, O=C([O-])CN(Cc1cccc(C(=O)[O-])n1)C[C@H](Cc1ccc(NC(=O)[C@H](CCCCNC(=O)CCC(=O)NCCCC[C@H](NC(=O)N[C@@H](CCC(=O)O)C(=O)O)C(=O)O)NC(=O)CCCc2ccc(I)cc2)cc1)N(CC(=O)[O-])Cc1cccc(C(=O)[O-])n1.[111In+3] [[^111In]In-Octapa-2] ?
**Result** 2.75

**Query** What Liver value was documented for this compound, O=C([O-])CN1CCN(C(CCC(=O)NCCC(=O)N2Cc3ccccc3-c3c(nnn3CCOCCOCCOCCOCCC(=O)NCCCC[C@H](NC(=O)N[C@@H](CCC(=O)O)C(=O)O)C(=O)O)-c3ccccc32)C(=O)[O-])CCN(CC(=O)[O-])CCN(C(CCC(=O)N[C@@H](CCCCNC(=O)CCCc2ccc(I)cc2)C(=O)O)C(=O)[O-])CC1.[111In+3] (some centres unmarked) [[^111In]In-PtDA] ?
**Result** 3.51

**Query** What Liver value was documented for this compound, O=C([O-])CN(CCN(CCc1ccc(NC(=O)[C@H](CCCCNC(=O)CCC(=O)NCCCC[C@H](NC(=O)N[C@@H](CCC(=O)O)C(=O)O)C(=O)O)NC(=O)CCCc2ccc(I)cc2)cc1)CCN(CC(=O)[O-])Cc1cccc(C(=O)[O-])n1)Cc1cccc(C(=O)[O-])n1.[111In+3] [[^111In]In-Neunpa-2] ?
**Result** 2.23

**Query** What Liver value was documented for this compound, O=C([O-])CN1CCN(C(CCC(=O)NCCCC[C@H](NC(=O)N[C@@H](CCC(=O)O)C(=O)O)C(=O)O)C(=O)[O-])CCN(CC(=O)[O-])CCN(C(CCC(=O)N[C@@H](CCCCNC(=O)CCCc2ccc(I)cc2)C(=O)O)C(=O)[O-])CC1.[111In+3] (some centres unmarked) [[^111In]In-PSMA-DA1] ?
**Result** 4.95

**Query** What Liver value was documented for this compound, O=C(O)CC[C@H](NC(=O)N[C@@H](CCCCNC(=O)[C@H](Cc1ccc2ccccc2c1)NC(=O)[C@H]1CC[C@H](CNC(=O)CCC(C(=O)O)N2CCN(CC(=O)O)CCN(C(CCC(=O)N[C@@H](CCCCNC(=O)CCCc3ccc(I)cc3)C(=O)O)C(=O)O)CCN(CC(=O)O)CC2)CC1)C(=O)O)C(=O)O (some centres unmarked) [[^111In]In-PSMA-NAT-DA1, metal not drawn] ?
**Result** 8.24

**Query** What Liver value was documented for this compound, O=C([O-])CN1CCN(C(CCC(=O)NCCCC[C@H](NC(=O)N[C@@H](CCC(=O)O)C(=O)O)C(=O)O)C(=O)[O-])CCN(CC(=O)[O-])CCN(C(CCC(=O)Nc2ccccc2)C(=O)[O-])CC1.[111In+3] (some centres unmarked) [[^111In]In-PSMA-DB, reference compound] ?
**Result** 0.91

**Query** What Liver value was documented for this compound, O=C([O-])CN(Cc1cccc(C(=O)[O-])n1)C[C@H](Cc1ccc(NC(=O)[C@H](CCCCNC(=O)CCC(=O)NCCCC[C@H](NC(=O)N[C@@H](CCC(=O)O)C(=O)O)C(=O)O)NC(=O)COCCOCCOCC(=O)N[C@@H](CCCCNC(=O)CCCc2ccc(I)cc2)C(=O)O)cc1)N(CC(=O)[O-])Cc1cccc(C(=O)[O-])n1.[111In+3] [[^111In]In-Octapa-3] ?
**Result** 4.32

All values here come from patent US20240174622A1.
